# reported melting point; entries follow

# count of solved cases: 3
COc1cc(-c2ncc(C(F)(F)F)cc2Cl)ccc1C#N; 135 to 137 °C
c1ccc(Cc2cnc(N3CCN(c4nc(-c5ccccc5)nc5ccccc45)CC3)nc2)cc1; 135 to 137 °C
CCS(=O)(=O)N(CCCCC(N)=O)C1CC(C)(C)Oc2ccc(C)cc21 (configuration not stated); 127 to 129 °C

Quick one: melting point for OCCC1(CCO)c2ccccc2Sc2ccccc21 ?
132 to 135 °C

Then COC(=O)CCCC(Cl)C1SCC2NC(=O)N(Cc3ccccc3)C21 (configuration not stated) ?
141 to 142 °C

Then Nc1cccc(OCc2ncc3ccccc3n2)c1 ?
103 to 107 °C

Then COc1ccc(-c2nc(S(=O)c3ccccc3)n(C)c2-c2ccc(OC)cc2)cc1 (configuration not stated) ?
114 to 115 °C
